biological target: ATP-dependent translocase ABCB1 (Homo sapiens); assay: Reversal of P-gp-mediated multidrug resistance in doxorubicin-resistant human K562 cells assessed as drug concentration causing half-maximal increase in nuclear pirarubicin concentration; type: cell-based; conditions: read-out: Activity
Sequence (P08183 whole entry): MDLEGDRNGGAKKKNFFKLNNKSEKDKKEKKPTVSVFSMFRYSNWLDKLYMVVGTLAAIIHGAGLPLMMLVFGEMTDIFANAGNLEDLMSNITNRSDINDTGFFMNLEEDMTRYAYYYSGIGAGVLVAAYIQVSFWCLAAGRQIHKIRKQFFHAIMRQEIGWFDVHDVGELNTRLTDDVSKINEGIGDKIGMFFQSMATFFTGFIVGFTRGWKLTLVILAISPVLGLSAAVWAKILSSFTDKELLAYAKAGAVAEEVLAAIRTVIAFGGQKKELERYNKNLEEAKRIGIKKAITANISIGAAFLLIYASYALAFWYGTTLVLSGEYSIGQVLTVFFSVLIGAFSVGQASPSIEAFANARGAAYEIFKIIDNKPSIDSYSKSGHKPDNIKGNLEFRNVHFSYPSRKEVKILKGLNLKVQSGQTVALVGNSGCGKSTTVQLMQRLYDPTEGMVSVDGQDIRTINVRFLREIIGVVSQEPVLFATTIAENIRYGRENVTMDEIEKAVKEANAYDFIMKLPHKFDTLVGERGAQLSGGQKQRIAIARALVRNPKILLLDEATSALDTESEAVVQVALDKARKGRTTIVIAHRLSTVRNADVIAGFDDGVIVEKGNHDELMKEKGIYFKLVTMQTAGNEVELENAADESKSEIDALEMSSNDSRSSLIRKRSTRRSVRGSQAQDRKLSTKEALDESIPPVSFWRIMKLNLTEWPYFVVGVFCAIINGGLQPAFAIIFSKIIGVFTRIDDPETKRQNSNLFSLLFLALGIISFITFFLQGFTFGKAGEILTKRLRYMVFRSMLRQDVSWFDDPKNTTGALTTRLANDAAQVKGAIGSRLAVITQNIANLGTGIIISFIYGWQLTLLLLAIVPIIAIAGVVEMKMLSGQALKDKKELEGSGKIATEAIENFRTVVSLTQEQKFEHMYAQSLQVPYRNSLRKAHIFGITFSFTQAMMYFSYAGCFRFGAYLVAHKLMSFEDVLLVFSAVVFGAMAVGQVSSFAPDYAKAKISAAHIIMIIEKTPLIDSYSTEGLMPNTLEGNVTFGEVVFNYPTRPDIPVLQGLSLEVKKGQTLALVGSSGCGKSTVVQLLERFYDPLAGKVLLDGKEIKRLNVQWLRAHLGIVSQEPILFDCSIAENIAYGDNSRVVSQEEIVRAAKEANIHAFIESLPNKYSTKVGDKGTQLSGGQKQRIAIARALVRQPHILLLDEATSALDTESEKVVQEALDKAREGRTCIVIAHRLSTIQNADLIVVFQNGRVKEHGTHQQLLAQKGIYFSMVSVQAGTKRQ
parameter: EC50 (nM)

// solved cases for EC50 follow
- COc1cc(/C=C/C(=O)OCCCNCCCOC(=O)c2cc(OC)c(OC)c(OC)c2)cc(OC)c1OC: 500
- COc1cc(/C=C/C(=O)OCCCN2CCN(CCCOC(=O)c3c4ccccc4cc4ccccc34)CC2)cc(OC)c1OC: 160
- COc1ccc(C(C#N)(CCCN(C)c2c3ccccc3cc3ccccc23)C(C)C)cc1OC (stereo not drawn): 50
- COc1ccc(C(C#N)(CCC(=O)OCCCN(C)CCN(C)CCCOC(=O)c2c3ccccc3cc3ccccc23)C(C)C)cc1OC (stereo not drawn): 400
- COc1cc(/C=C/C(=O)OCCN(C)CCOC(=O)C2c3ccccc3-c3ccccc32)cc(OC)c1OC: 800
- COc1cc(/C=C/C(=O)OCCN(C)CCOC(=O)c2ccccc2)cc(OC)c1OC: 3700

1 = COc1cc(/C=C/C(=O)OCCCCCCCN(C)CCCCCCCOC(=O)c2cc(OC)c(OC)c(OC)c2)cc(OC)c1OC
2 = COc1cc(/C=C/C(=O)OCCCN(C)CCN(C)CCCOC(=O)C2c3ccccc3-c3ccccc32)cc(OC)c1OC
## Task Would you kindly point out which of 1 and 2 has the smaller EC50 figure? To answer, give the label that identifies your chosen option.
## Result 2

###

target: ATP-dependent translocase ABCB1 (Homo sapiens); experiment: Reversal of P-gp-mediated multidrug resistance in doxorubicin-resistant human K562 cells assessed as increase in nuclear pirarubicin concentration; type: cell-based
parameter: Alpha max

Below are worked cases with known answers.
• COc1cc(/C=C/C(=O)OCCN(C)CCOC(=O)c2c3ccccc3cc3ccccc23)cc(OC)c1OC = 0.84
• CN(CCCOC(=O)c1c2ccccc2cc2ccccc12)CCN(C)CCCOC(=O)c1c2ccccc2cc2ccccc12 = 0.5

I = COc1cc(/C=C/C(=O)OCCCCCN(C)CCCCCOC(=O)C2c3ccccc3-c3ccccc32)cc(OC)c1OC
II = COc1cc(/C=C/C(=O)OCCCCCCCN(C)CCCCCCCOC(=O)c2c3ccccc3cc3ccccc23)cc(OC)c1OC
## Task Which record shows the lower Alpha max: the first, I , or the second, II ? Answer format: the label of the selected item.
## Result II
(II: 0.55, I: 0.83)

###

biological target: ATP-dependent translocase ABCB1 (Homo sapiens); test: Reversal of P-gp-mediated multidrug resistance in doxorubicin-resistant human K562 cells assessed as drug concentration causing half-maximal increase in nuclear pirarubicin concentration; conditions: read-out: Activity
parameter: EC50 (nM)

• COc1cc(/C=C/C(=O)OCCCNCCCOC(=O)c2c3ccccc3cc3ccccc23)cc(OC)c1OC = 210
• COc1cc(/C=C/C(=O)OCCCCCCCN(C)CCCCCCCOC(=O)c2c3ccccc3cc3ccccc23)cc(OC)c1OC = 150
• COc1cc(/C=C/C(=O)OCCOCCN(C)CCOCCOC(=O)c2cc(OC)c(OC)c(OC)c2)cc(OC)c1OC = 4200

I = COc1cc(/C=C/C(=O)OCCOCCNCCOCCOC(=O)c2cc(OC)c(OC)c(OC)c2)cc(OC)c1OC
II = COc1cc(/C=C/C(=O)OCCN(C)CCOC(=O)c2cc(OC)c(OC)c(OC)c2)cc(OC)c1OC
## Task Which item exceeds the other in EC50, I or II ? Please respond with the label that marks your chosen entry.
## Result I

1 = COc1cc(/C=C/C(=O)OCCCCCN(C)CCCCCOC(=O)C2c3ccccc3-c3ccccc32)cc(OC)c1OC
2 = COc1cc(/C=C/C(=O)OCCCN2CCN(CCCOC(=O)c3cc(OC)c(OC)c(OC)c3)CC2)cc(OC)c1OC
## Task Hello, I am sorting some records. Could you say if 1 or 2 has the smaller EC50 value? Respond with the label that goes with your answer.
## Result 1
(1: 110 nM, 2: 380 nM)

1 = COc1cc(/C=C/C(=O)OCCCN2CCN(CCCOC(=O)C3c4ccccc4-c4ccccc43)CC2)cc(OC)c1OC
2 = COc1ccc(C(C#N)(CCC(=O)OCCCN2CCN(CCCOC(=O)c3c4ccccc4cc4ccccc34)CC2)C(C)C)cc1OC (centres undefined)
3 = COc1cc(/C=C/C(=O)OCCCN(C)CCN(C)CCCOC(=O)/C=C/c2cc(OC)c(OC)c(OC)c2)cc(OC)c1OC
4 = COc1cc(/C=C/C(=O)OCCN(C)CCOC(=O)c2c3ccccc3cc3ccccc23)cc(OC)c1OC
## Task Given 4 molecules, produce a descending ranking by EC50. The labels, placed in the requested order, form the answer.
## Result 3, 4, 2, 1

P = COc1cc(/C=C/C(=O)OCCCN(C)CCCOC(=O)c2c3ccccc3cc3ccccc23)cc(OC)c1OC
Q = COc1cc(/C=C/C(=O)OCCCCCCN(C)CCCCCCOC(=O)c2c3ccccc3cc3ccccc23)cc(OC)c1OC
## Task I would appreciate it if you could say which entry, P or Q , has the lower EC50 value. Respond using the label that marks the chosen record.
## Result P
(P: 180 nM, Q: 610 nM)

A = COc1ccc(C(C#N)(CCC(=O)OCCCNCCCOC(=O)c2c3ccccc3cc3ccccc23)C(C)C)cc1OC (centres undefined)
B = COc1cc(/C=C/C(=O)OCCCN(C)CCN(C)CCCOC(=O)c2c3ccccc3cc3ccccc23)cc(OC)c1OC
## Task Higher EC50: A or B ? Bench note: the answer is the label of the chosen record.
## Result A

I = COc1cc(/C=C/C(=O)OCCCN(C)CCCOC(=O)c2cc(OC)c(OC)c(OC)c2)cc(OC)c1OC
II = COc1cc(/C=C/C(=O)OCCCCCCN(C)CCCCCCOC(=O)c2cc(OC)c(OC)c(OC)c2)cc(OC)c1OC
III = COc1cc(/C=C/C(=O)OCCCN2CCN(CCCOC(=O)/C=C/c3cc(OC)c(OC)c(OC)c3)CC2)cc(OC)c1OC
IV = COc1cc(/C=C/C(=O)OCCN(C)CCOC(=O)c2ccc(OC)c(OC)c2OC)cc(OC)c1OC
## Task Ascending by EC50, please. Note for the reader: the ranking is given by listing the labels in the order requested.
## Result III, I, II, IV
